Data credit: patent US20250382376A1

# MEASURED_TARGET: T1, extracellular domain of human CD73 protein, C-terminus polyhistidine-tagged (human, UniProt P21589 27-547)
# T1 construct: also the immunogen; also called CD73-ECD; human CD73-ECD
# T1 sequence: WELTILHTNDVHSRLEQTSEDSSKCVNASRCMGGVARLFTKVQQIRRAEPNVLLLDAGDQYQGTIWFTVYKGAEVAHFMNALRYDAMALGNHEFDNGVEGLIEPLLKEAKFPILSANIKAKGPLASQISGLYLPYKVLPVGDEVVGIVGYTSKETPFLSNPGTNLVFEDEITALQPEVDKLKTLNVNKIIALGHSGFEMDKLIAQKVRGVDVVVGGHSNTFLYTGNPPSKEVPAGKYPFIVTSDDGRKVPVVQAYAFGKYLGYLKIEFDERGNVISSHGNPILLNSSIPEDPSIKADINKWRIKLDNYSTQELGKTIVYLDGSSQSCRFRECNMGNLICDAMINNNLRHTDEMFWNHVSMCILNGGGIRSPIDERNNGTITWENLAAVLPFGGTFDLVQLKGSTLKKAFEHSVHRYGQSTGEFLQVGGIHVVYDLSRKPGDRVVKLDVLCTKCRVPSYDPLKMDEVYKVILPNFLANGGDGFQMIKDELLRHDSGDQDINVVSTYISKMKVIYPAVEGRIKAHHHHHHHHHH
# ASSAY_METHOD_TEXT: ELISA on CD73-ECD, 100 µL supernatant of antibody expression, second of two readings; PBS 0.19, 0.18
RESULT_TYPE: ELISA reading (not named on the sheet)
Give only the figure.

Input: I am curious: what ELISA reading (not named on the sheet) value has been reported for 5-E11 derived antibody 5-E11AS (VHH, not shown: a dimerising Fc or GST) VHH: ALQLVESGGGLVQPGGSLRLSCEVSGFTLDYYNIGWFRQAPGKEREGVSCSSASGGSTYYADSVKGRFTISRDNAKNTVYLQMNSLKPEDTGVYYCAAYRGWHPSLDARVYDYWGQGTEVTVSS ?
Output: 4.27

Input: Another binder: chimeric nanobody 5-E11 (Fc fusion, Human-alpaca chimeric antibody (VHH on hIgG1 Fc); Only the VHH is tied to the tested molecule; also called original antibody 5-E11) VHH: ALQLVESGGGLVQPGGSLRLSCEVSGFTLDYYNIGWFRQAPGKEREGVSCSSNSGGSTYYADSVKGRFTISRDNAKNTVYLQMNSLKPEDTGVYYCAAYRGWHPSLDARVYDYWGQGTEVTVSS
Output: 4.23

Input: Another binder: 5-E11 derived antibody 5-E11QS (VHH, not shown: a dimerising Fc or GST) VHH: ALQLVESGGGLVQPGGSLRLSCEVSGFTLDYYNIGWFRQAPGKEREGVSCSSQSGGSTYYADSVKGRFTISRDNAKNTVYLQMNSLKPEDTGVYYCAAYRGWHPSLDARVYDYWGQGTEVTVSS
Output: 4.28

Input: Another binder: 5-E11 derived antibody 5-E11GS (VHH, not shown: a dimerising Fc or GST) VHH: ALQLVESGGGLVQPGGSLRLSCEVSGFTLDYYNIGWFRQAPGKEREGVSCSSGSGGSTYYADSVKGRFTISRDNAKNTVYLQMNSLKPEDTGVYYCAAYRGWHPSLDARVYDYWGQGTEVTVSS
Output: 4.22
